Each entry below lists one item and its recorded activation at 10 µM value.
STUDY TARGET: human GRIN1 (transcript variant NR1-3) and GRIN2D expressed in Xenopus oocytes (Homo sapiens, UniProt O15399)
Construct: GenScript (GRIN2D synthesis) SC115601; host or cells: Xenopus oocytes injected with cRNA (1 GluN1 : 2 GluN2)
Sequence (O15399 28-1336, other chains not shown): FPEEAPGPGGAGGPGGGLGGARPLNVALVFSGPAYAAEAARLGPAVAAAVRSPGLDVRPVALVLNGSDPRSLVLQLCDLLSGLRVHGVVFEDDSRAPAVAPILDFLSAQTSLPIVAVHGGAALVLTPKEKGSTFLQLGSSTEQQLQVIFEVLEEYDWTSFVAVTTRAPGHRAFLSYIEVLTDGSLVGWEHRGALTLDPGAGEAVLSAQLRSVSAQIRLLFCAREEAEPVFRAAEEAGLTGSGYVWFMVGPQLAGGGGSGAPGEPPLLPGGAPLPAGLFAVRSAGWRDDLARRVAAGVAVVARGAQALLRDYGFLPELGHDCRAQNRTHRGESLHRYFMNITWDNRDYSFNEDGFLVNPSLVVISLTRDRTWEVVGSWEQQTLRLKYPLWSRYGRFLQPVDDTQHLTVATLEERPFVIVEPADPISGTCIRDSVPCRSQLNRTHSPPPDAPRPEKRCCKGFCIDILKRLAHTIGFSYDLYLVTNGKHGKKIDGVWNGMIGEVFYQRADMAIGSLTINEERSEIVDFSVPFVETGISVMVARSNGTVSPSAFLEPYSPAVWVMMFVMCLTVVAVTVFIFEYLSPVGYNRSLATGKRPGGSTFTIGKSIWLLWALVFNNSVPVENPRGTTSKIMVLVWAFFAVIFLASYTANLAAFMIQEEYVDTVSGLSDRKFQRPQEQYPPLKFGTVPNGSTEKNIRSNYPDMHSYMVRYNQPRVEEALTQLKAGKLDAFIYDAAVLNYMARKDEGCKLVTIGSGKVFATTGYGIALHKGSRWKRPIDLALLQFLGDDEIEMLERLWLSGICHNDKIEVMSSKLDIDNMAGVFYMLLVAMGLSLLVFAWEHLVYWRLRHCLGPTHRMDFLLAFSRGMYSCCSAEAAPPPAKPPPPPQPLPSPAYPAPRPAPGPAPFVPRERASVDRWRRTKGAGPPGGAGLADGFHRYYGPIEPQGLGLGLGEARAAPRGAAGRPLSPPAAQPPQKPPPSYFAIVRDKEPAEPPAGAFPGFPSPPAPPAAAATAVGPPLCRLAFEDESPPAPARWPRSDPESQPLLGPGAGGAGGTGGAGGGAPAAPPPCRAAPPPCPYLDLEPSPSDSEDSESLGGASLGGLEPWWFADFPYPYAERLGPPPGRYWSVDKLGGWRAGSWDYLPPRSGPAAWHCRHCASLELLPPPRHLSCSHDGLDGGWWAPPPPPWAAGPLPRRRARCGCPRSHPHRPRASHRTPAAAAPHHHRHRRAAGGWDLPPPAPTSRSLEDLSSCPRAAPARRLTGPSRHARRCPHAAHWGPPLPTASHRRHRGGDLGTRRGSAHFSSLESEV
TEST: NR2D oocyte potentiation assay (two-electrode voltage clamp)
Type: cell-based
MEASUREMENT CONTEXT: 10 uM test compound; glutamate and glycine 10 μM each; holding potential −40 mV

The recorded activation at 10 µM for entry Cc1ccc2nc(-c3ccc(C(C)(C)C)nc3)c(C#N)c(=O)n2c1 equals 100 to 500%

The molecule listed as CC(C)(C)c1ccc(-c2nc3n(c(=N)c2C#N)CCCS3)cc1 has a reported activation at 10 µM of 500 to 1000%

Lab book: activation at 10 µM of CC(C)(C)c1ncc(-c2nc3n(c(=O)c2C#N)C[C@H](CO)CS3)cn1 noted as > 1000%

For reference, reported activation at 10 µM for CC(C)(C)c1ccc(-c2nc3n(c(=O)c2C#N)C[C@@H](CF)CS3)cn1 stands at > 1000%

GET /value?item= C[C@@H]1CSc2nc(-c3cnc(C(C)(C)C)nc3)c(C#N)c(=O)n2C1 &field=activation at 10 µM returns 500 to 1000%

Origin of measurements: patent US11807650B2
